Hello, the source for this data is ChEMBL document CHEMBL1201862, in case you need it.

We begin with a simple list: items and their reported GI50.
System: OVCAR-3
Assay: NCI tumour cell line growth inhibition, 48 h
Activity calls are given as the source filed them. No stated cut-off is given here; in the data, active = GI50 up to about 1.1 µM and inactive = higher.

Compound	GI50
C=C(C)[C@@H]1CCC2=C[C@H](OC2=O)[C@@]2(C)C[C@@H]2C2=CC(C)=C(O2)[C@H]1O	43.4 µM (inactive)
O=C1C2CCCC2N1Cc1ccccc1 (configuration not stated)	> 100 µM (inactive)
Cc1ccnc2c1c(=O)c1ccccc1n2C	63.2 µM (inactive)
CN(C)CC1CCC/C1=N\O (configuration not stated)	> 100 µM (inactive)
c1ccc(CN2CCC3(CC2)SSC2(CCN(Cc4ccccc4)CC2)SS3)cc1	> 100 µM (inactive)

Exercise: Report the value of GI50 obtained on OVCAR-3 for O=C1O/C(=C(/c2ccc(Cl)cc2)c2nc3ccccc3[nH]2)C(O)=C1c1ccc(Cl)cc1 .
Key: 2.38 µM (inactive)

Exercise: Report the value of GI50 obtained on OVCAR-3 for O=C1CC2(CCC(O)(c3ccco3)C(C(=O)c3ccco3)C2)C(=O)c2ccccc2N1 (configuration not stated) .
Key: 84.7 µM (inactive)

----------
Test system: MOLT-4
Test: NCI tumour cell line growth inhibition, 48 h
The source made the active and inactive calls. Rule as the data show it: active = GI50 up to about 1.1 µM and inactive = higher.
We begin with a simple list: items and their reported GI50.

Molecule	GI50
Fc1cccc(F)c1C1SCc2nc3ccc(Cl)cc3n21 (stereo unspecified)	> 100 µM (inactive)
CCCCCCCCCCCCCCCC(=O)OC1C(O)C(O)C(O)C(O)C12CO2 (stereo unspecified)	12.2 µM (inactive)
CCCCCCCCCCCCCCCCOCC(COP(=O)([O-])OCC[N+](C)(C)C)OCCCCCCCCCCCCCCCC (stereo unspecified)	> 100 µM (inactive)
COc1cc(Nc2nnc3n2S(=O)(=O)c2cc(C)c(Cl)cc2S3)cc(OC)c1	4.29 µM (inactive)
CCOC(=O)/C(=C/Nc1c(C)n(C)n(-c2ccccc2)c1=O)C(C)=O	> 100 µM (inactive)

Next molecule, please.
Exercise: Dear colleague, please send me the reported GI50 for CCOC(=O)c1nc2ccccc2nc1NCc1ccc(Cl)cc1Cl when you can.
Key: > 100 µM (inactive)

----------
System: OVCAR-3
Experiment: NCI tumour cell line growth inhibition, 48 h
Active and inactive are the calls of the source. Rule as the data show it: active = GI50 up to about 1.1 µM and inactive = higher.
Measured quantity: GI50

Completed entries (count: 5):
Molecule	Measured quantity	Measured value
CCOC(=O)/C(=C\c1ccc(O)c(OC)c1)C(=O)c1ccccc1	GI50	26.9 µM (inactive)
CCOP(=O)(OCC)C(Nc1ccc(F)cc1)c1ccccc1 (stereo unspecified)	GI50	> 100 µM (inactive)
CCOC(=O)CCC(C(=O)OCC)n1nnc2cc(Nc3c(C)[n+]([O-])c4ccc(Cl)cc4[n+]3[O-])ccc21 (stereo unspecified)	GI50	40.4 µM (inactive)
CC1N(C)C(=O)OC12CCN(CCCC(=O)c1ccc(F)cc1)CC2 (stereo unspecified)	GI50	> 100 µM (inactive)
OCCCc1cnco1	GI50	> 100 µM (inactive)

Next molecule, please.
Exercise: Dear colleague, please send me the reported GI50 for N/C(=N\O)N/N=C\c1c2ccccc2c(Cl)c2ccccc12 when you can.
Key: 3.47 µM (inactive)

----------
We begin with a simple list: items and their reported GI50.
Test system: OVCAR-3
Experiment: NCI tumour cell line growth inhibition, 48 h
The source made the active and inactive calls. Rule as the data show it: active = GI50 up to about 1.1 µM and inactive = higher.

Completed entries (count: 6):
Compound	Measured quantity	Measured value
COC(=O)c1nc(-c2ccc(Cl)c(Cl)c2)nc2ccc(Cl)cc12	GI50	> 10 µM (inactive)
O=C1C(Cl)C(c2cccc(Br)c2)N1c1c(O)c(Cl)cc(Br)c1Cl (stereo not given)	GI50	16.1 µM (inactive)
C[C@]12CC[C@@H]3c4ccccc4CC[C@H]3[C@@H]1CC[C@@H]2O	GI50	> 100 µM (inactive)
Nc1ccc(C(=O)NN2C(=O)C(Cl)C2c2ccccc2)cc1 (stereo not given)	GI50	> 100 µM (inactive)
O=C(CNC(c1ccccc1)(c1ccccc1)c1ccccc1)NC1CCCCC1NC(=O)CNC(c1ccccc1)(c1ccccc1)c1ccccc1 (stereo not given)	GI50	> 100 µM (inactive)
Cc1nccc2c1cnc1ccnn12	GI50	> 100 µM (inactive)

Exercise: Report the value of GI50 obtained on OVCAR-3 for O=C(CCCN1CCc2[nH]c3cc(F)ccc3c2C1)c1ccc(F)cc1 .
Key: 14.2 µM (inactive)

Exercise: Report the value of GI50 obtained on OVCAR-3 for CCSC(SCC)c1cc2c(cc1Br)OCO2 .
Key: 22.9 µM (inactive)

Exercise: Report the value of GI50 obtained on OVCAR-3 for CCOC(=O)CN1C(=O)c2cc([N+](=O)[O-])cc3cc([N+](=O)[O-])cc(c23)C1=O .
Key: 23.2 µM (inactive)

Exercise: Report the value of GI50 obtained on OVCAR-3 for C=C1CN(C(=O)c2cc3cc(OC)c(OC)c(OC)c3[nH]2)c2cc([N+](=O)[O-])ccc21 .
Key: > 100 µM (inactive)

----------
Tested on: CAKI-1
Test: NCI tumour cell line growth inhibition, 48 h
Active and inactive are the calls of the source. Cut-off read from the data, not from the text of the source: active = GI50 up to about 1.1 µM and inactive = higher.
Measured quantity: GI50

Completed entries (count: 3):
Compound	GI50
O=S(=O)(O)C(c1ccccc1)C(O)c1ccccc1 (stereo not given)	> 100 µM (inactive)
O=C(O)c1cc2ccccc2c(Cc2c(O)c(C(=O)O)cc3ccccc23)c1O	> 100 µM (inactive)
O=C1N[C@@H]([C@H](CCCCCO)OC(=O)c2ccccc2)CO1	> 100 µM (inactive)

Exercise: Dear colleague, please send me the reported GI50 for CNC(=O)C(C)NC(=O)C(Cc1ccccc1)NC(=O)OC(C)(C)C (stereo not given) when you can.
Key: > 100 µM (inactive)

Exercise: Dear colleague, please send me the reported GI50 for Cc1ccc(O)c(Cc2nc3ccccc3nc2-c2cccc(Br)c2)c1 when you can.
Key: 85.3 µM (inactive)

Exercise: Dear colleague, please send me the reported GI50 for [C-]#[N+]C(=C\c1ccc(O)cc1)/C(=C/c1ccc(O)cc1)[N+]#[C-] when you can.
Key: 2.25 µM (inactive)

Exercise: Dear colleague, please send me the reported GI50 for Oc1c(Cl)ccc2cccnc12 when you can.
Key: 3.25 µM (inactive)

Exercise: Dear colleague, please send me the reported GI50 for O=C1Nc2ccccc2/C1=N/N1C(=O)/C(=C/c2ccccc2S)N=C1c1ccccc1 when you can.
Key: 91.6 µM (inactive)

Exercise: Dear colleague, please send me the reported GI50 for Cc1cc(CN(Cc2ccccc2)Cc2nc3ccccc3[nH]2)c(O)c(CN(Cc2nc3ccccc3[nH]2)Cc2nc3ccccc3[nH]2)c1 when you can.
Key: 8.69 µM (inactive)

Exercise: Dear colleague, please send me the reported GI50 for CCOC(=O)/C(C(=S)NCc1ccccc1)=C(/N)N1CCCC1 when you can.
Key: > 100 µM (inactive)

----------
Test system: TK-10
Assay: NCI tumour cell line growth inhibition, 48 h
Active and inactive are the calls of the source. No stated cut-off is given here; in the data, active = GI50 up to about 1.1 µM and inactive = higher.
We begin with a simple list: items and their reported GI50.

Exercise: Dear colleague, please send me the reported GI50 for CC1=[N+](C)CCN1C when you can.
Key: > 100 µM (inactive)

Exercise: Dear colleague, please send me the reported GI50 for CC(CC(=O)N1C(=O)C(C)(C)[C@@H](O)[C@H]1CC(C)C(Cl)(Cl)Cl)C(Cl)(Cl)Cl (some centres undefined) when you can.
Key: > 100 µM (inactive)

Exercise: Dear colleague, please send me the reported GI50 for O=C(CCCN1CCc2[nH]c3cc(F)ccc3c2C1)c1ccc(F)cc1 when you can.
Key: 12.4 µM (inactive)

Exercise: Dear colleague, please send me the reported GI50 for CCc1cccc(C)c1N1C(=O)C(=O)C(c2nc3ccccc3o2)/C(=N/NC(=S)NN)C1=O (centres undefined) when you can.
Key: > 100 µM (inactive)

Exercise: Dear colleague, please send me the reported GI50 for CCCCN(CCCC)CC(O)c1cc(-c2ccc(Cl)c(Cl)c2)nc2c(Cl)cc(Cl)cc12 (centres undefined) when you can.
Key: > 100 µM (inactive)

Exercise: Dear colleague, please send me the reported GI50 for COc1ccc2c(c1OC(C)=O)C1=CC(=O)CCC13CCNC3C2 (centres undefined) when you can.
Key: > 100 µM (inactive)

Exercise: Dear colleague, please send me the reported GI50 for COc1ccc(OC)c(C2CCc3cnc4nc(N)nc(N)c4c3C2)c1 (centres undefined) when you can.
Key: > 100 µM (inactive)

Exercise: Dear colleague, please send me the reported GI50 for O=c1sc2c(s1)-c1sc(=O)sc1SS2 when you can.
Key: > 52.6 µM (inactive)

----------
Tested on: HCT-116
Assay: NCI tumour cell line growth inhibition, 48 h
Calls of active or inactive are those of the source. Cut-off read from the data, not from the text of the source: active = GI50 up to about 1.1 µM and inactive = higher.
// classify into active, inactive

Before answering, review these 8 worked examples.
Compound	Qualitative label
CCOc1ccc2[nH]c3c(C)c4ccncc4c(C)c3c2c1	active
O=C(CCC(=O)Nc1ccc(Cl)c(Cl)c1)CC(=O)c1ccc(Br)cc1	inactive
O=C1CC(CC(O)C(O)C(O)CO)CC(=O)N1 (centres undefined)	inactive
CC[C@H](C)C1=C(OC(C)=O)[N@+]2([O-])Oc3ccc(-c4c(OC(C)=O)c(OC(C)=O)c(-c5ccc(OC(C)=O)cc5)c(OC(C)=O)c4OC(C)=O)cc3O[C@]2([C@@H](C)CC)C(=O)N1OC(C)=O	inactive
Cc1cc(O)no1	inactive
Cc1ccc(S(=O)(=O)NNC2Oc3cc4c(cc3C(c3ccccc3O)C2C)OCO4)cc1 (centres undefined)	inactive
CCOC(=O)Nc1ccc(S(=O)(=O)I)cc1.CCOC(=O)Nc1ccc(S(=O)(=O)I)cc1.CNC(=O)N=O.NC(=O)OCCCl	inactive
COC(=O)C1=C(c2cc(OC)c(OC)c(OC)c2)OC(c2ccc3c(c2)OCO3)C1 (centres undefined)	inactive

Here is another compound to look at.
Exercise: Assay outcome for CC(C)(C)C(=O)OCC(COC(=O)C(C)(C)C)[N+](=O)[O-] : what was it?
Key: inactive
